Where do the numbers come from? From PubChem BioAssay (NCI).

Test system: SW-620 colon
Assay: NCI-60 one-dose screen, 48 h
Conditions: 10 µM unless noted
Method: Growth inhibition of the SW-620 human tumor cell line is measured as a screen for anti-cancer activity. Cells are grown in 96 well plates and exposed to the test compound for 48 hours. Compounds are tested at a single concentration, which is 10^-5 M for most compounds. The reported endpoint is percent growth (GI% or GIPRCNT), where numbers from 0 - 100% represent growth inhibition, and numbers from -100% - 0 represent cell death. For example, a value of 40 represents 60% growth inhibition. […]
Compounds without any hit were thinned out: in the full panel of roughly 83,000, 20% have a hit. Active and inactive are the calls of the source. How the source made its calls: active means growth percent below 10; inactive means the rest.
Answer with one of the outcomes t for active, f for inactive

Test call for this compound, please: c1ccc(CSc2nnc(-c3ccc4nc(-c5ccccc5)[nH]c4c3)o2)cc1
f

Test call for this compound, please: COc1ccc2c(c1)C(Sc1ccc(Br)cc1)c1c(nc(N)c(C#N)c1N)O2 (stereo not drawn)
f

Test call for this compound, please: CCCSc1nnc(-c2c(C)nc3sccn23)o1
f

Test call for this compound, please: COc1cc2cc(C(=O)N3C[C@@H](CCl)c4c3cc(OC(=O)N(CCC(=O)N3CCN(C)CC3)C3CCCCC3)c3ccccc43)[nH]c2c(OC)c1OC
t

Test call for this compound, please: CN1CCN(C(=O)CCN(C(=O)Oc2cc3c(c4ccccc24)[C@H](CCl)CN3C(=O)c2cc3cc(OCCCN4CCC4)ccc3[nH]2)[C@H]2CCSSC2)CC1
t

Test call for this compound, please: COc1cc(CNC(=O)C[C@H](C)CCC=C(C)C)ccc1OCc1cn(-c2ccc(Cl)c(Cl)c2)nn1
f

Test call for this compound, please: C=CCn1c(O)c(N=Nc2nc(-c3cc4ccccc4oc3=O)cs2)c2ccccc21
f

Test call for this compound, please: COc1ccc(N=Nc2c(N)nn3c(-c4cc5ccccc5oc4=O)ccnc23)cc1
f

Test call for this compound, please: O=C1Nc2ccccc2/C1=C/C(=O)c1cc2ccccc2oc1=O
t

Test call for this compound, please: Cc1[nH]nc2ccc3nc(-c4cnn(CCO)c4)c4c(c3c12)CCCC4
f

Test call for this compound, please: COc1cc(CNC(=O)C[C@H](C)CCC=C(C)C)ccc1OCc1cn(-c2ccc(Cl)cc2Cl)nn1
f

Test call for this compound, please: COc1cc(NC(=O)CSc2nnc(-c3ccc(-c4nc5ccc(Cl)cc5[nH]4)cc3)o2)cc(OC)c1OC
f

Test call for this compound, please: COc1ccc(-c2nc3ccccc3n2CC(=O)N=Nc2c(O)[nH]c3ccc(Br)cc23)cc1
f

Test call for this compound, please: COc1cc(/C=C/C(=O)c2ccc(S(=O)(=O)NCCNc3nc(N(C)C)nc(N4CCOCC4)n3)cc2)cc(OC)c1OC
t

Test call for this compound, please: OCCn1cc(-c2nc3ccc4[nH]ncc4c3c3c2CCCC3)cn1
f

Test call for this compound, please: Fc1ccc(Nc2nnc(-c3c[nH]c4ccccc34)o2)cc1
f

Test call for this compound, please: CN(C)c1nc(NCCNS(=O)(=O)c2ccc(C(=O)/C=C/c3ccc(F)cc3)cc2)nc(N2CCOCC2)n1
t

Test call for this compound, please: O=C(Cn1c(-c2ccccc2)nc2ccccc21)N=Nc1c(O)[nH]c2ccc(Cl)cc12
f

Test call for this compound, please: Cc1ccc(N=Nc2c(N)nn3c(-c4cc5cc(Br)ccc5oc4=O)ccnc23)cc1
f

Test call for this compound, please: CCOC(=O)/C(F)=C/C1CC1C1CCN(C(=O)OC(C)(C)C)CC1 (stereo not drawn)
f

Test call for this compound, please: COc1ccc(N=Nc2c(N)nn3c(-c4ccc([N+](=O)[O-])cc4)ccnc23)cc1
f

Test call for this compound, please: O=C1/C(=C/C=C/c2ccco2)SC(=S)N1CC(=S)C1C=CS(=O)(=O)C1 (stereo not drawn)
f

Test call for this compound, please: COc1ccc2[nH]c(O)c(N=Nc3nc(-c4ccccc4)cs3)c2c1
f

Test call for this compound, please: O=Cc1cncc(-c2ccc3ncnc(N4CCc5cc(F)c(Cl)cc54)c3c2)c1
f

Test call for this compound, please: O=C(N/N=C/c1ccsc1)c1[nH]c2ccc(Br)cc2c1-c1ccccc1
t

Test call for this compound, please: CCCn1c(NC(=O)c2cccc(C(N)=O)c2)nc2cc(CN3CCCCC3)ccc21
f

Test call for this compound, please: Nc1nnc(-c2cncc(Br)c2)c(-c2c[nH]c3ccc(Br)cc23)n1
f

Test call for this compound, please: O=C(NNC(=O)c1ccc(OCc2nc3ccc(Cl)cc3[nH]2)cc1)Nc1ccc(Cl)c(Cl)c1
f

Test call for this compound, please: O=S(=O)(c1nc(-c2ccc(Br)cc2)oc1-c1ccc(Cl)cc1)N1CCCC(O)C1 (stereo not drawn)
f

Test call for this compound, please: CCCCCCCCc1ccc(C(=O)Nc2ccc(C)c(OP(=O)(O)O)c2)cc1
f

Test call for this compound, please: Cn1cc(-c2cc(N)n3nc(-c4c[nH]c5ccccc45)cc3n2)c2cc(Cl)ccc21
t

Test call for this compound, please: COc1ccc(/C=C/c2nc3ccccc3n3c(-c4cccc([N+](=O)[O-])c4)nnc23)cc1
t

Test call for this compound, please: CCN(C(=O)CN1C(=O)/C(=C/c2ccco2)SC1=S)C1CCS(=O)(=O)C1 (stereo not drawn)
f

Test call for this compound, please: Cc1ccc(-c2cc(-c3ccccc3)[nH]c(=O)c2C#N)cc1
f

Test call for this compound, please: O=C1CC(c2ccc(I)cc2)OC2C=Cc3ccccc3C12 (stereo not drawn)
f

Test call for this compound, please: Cc1cc(N=C(N)c2ccccc2)ccc1OCCCCCCCCn1ccnc1
f

Test call for this compound, please: CCCCCCCCc1cccc(CC(=O)Nc2ccc(C)cc2C(=O)O)c1
f

Test call for this compound, please: COc1cc(C2CC(c3ccc(S(=O)(=O)NCCNc4nc(N(C)C)nc(N5CCOCC5)n4)cc3)=Nc3c(N)nc(N)nc3N2)cc(OC)c1OC (stereo not drawn)
f

----------
Tested on: NCI/ADR-RES ovarian
Test: NCI-60 one-dose screen, 48 h (100 = growth as untreated, 0 = no growth, -100 = all killed)
Details: 10 µM unless noted
About 83,000 compounds went through this panel and 20% of them were active in at least one assay; those are over-represented in the sample as a whole.
Field: growth. Provide a value for each of the compounds that follow.
Provide the reading as a plain figure in %.

Would you mind telling me what growth value was observed for Cc1ccc(C(=O)Nc2cc(-c3ccncc3)cc(C(F)(F)F)c2)cc1C#Cc1cnc2cccnn12 ?
50.2

Would you mind telling me what growth value was observed for COC(=O)CSC1=C(C)C(=O)C(OC)=C(OC)C1=O ?
96.6

Would you mind telling me what growth value was observed for Nc1nnc(CS(=O)(=O)c2ccccc2)s1 ?
104

Would you mind telling me what growth value was observed for O=CNc1cccc(-n2cnc3cc(-c4ccc(O)cc4)ccc32)c1 ?
12.1

Would you mind telling me what growth value was observed for COc1cc(CNC(=O)C[C@H](C)CCC=C(C)C)ccc1OCc1cn(-c2ccc(Cl)c(Cl)c2)nn1 ?
36.5

----------
System: LOX IMVI melanoma
Assay: NCI-60 one-dose screen, 48 h (100 = growth as untreated, 0 = no growth, -100 = all killed)
Details: 10 µM unless noted
About 83,000 compounds went through this panel and 20% of them were active in at least one assay; those are over-represented in the sample as a whole.
Returns: string. Value is 1 (yes) if measured growth is below 40%, and 0 (no) if it is greater than or equal to it.

# TODO verify growth < 40% strictly for this compound: O=C1Nc2ccccc2/C1=C\c1ccc(OCC(=O)c2ccc(Br)cc2)cc1
1 (yes)

# TODO verify growth < 40% strictly for this compound: CC(=O)Nc1ccc(S(=O)(=O)Nc2ccc(-c3ccc4c(c3)NC(=O)/C4=C\c3ccc[nH]3)cc2)cc1
0 (no)

# TODO verify growth < 40% strictly for this compound: CC(C)C[C@H](NC(=O)[C@@H]1CCCCCCCCCCC(=O)N[C@@H](CC(=O)N2CCC[C@@H]2C2CCCC2)C(=O)N1)B(O)O
1 (yes)

# TODO verify growth < 40% strictly for this compound: O=C(N/N=C/c1ccoc1)c1[nH]c2ccc(Br)cc2c1-c1ccccc1
1 (yes)

# TODO verify growth < 40% strictly for this compound: O=C1Nc2ccccc2/C1=C/C(=O)c1cc2ccccc2oc1=O
0 (no)

# TODO verify growth < 40% strictly for this compound: CC[C@]12C=CCN3CC[C@@]4(c5ccc(OC)cc5N(C)[C@H]4[C@@](O)(C(=O)OC)[C@@H]1OC(=O)CCC[P+](c1ccc(OC)cc1)(c1ccc(OC)cc1)c1ccc(OC)cc1)[C@@H]32
1 (yes)

# TODO verify growth < 40% strictly for this compound: Nc1nn2c(-c3cc4cc(Br)ccc4oc3=O)ccnc2c1N=Nc1ccccc1
1 (yes)

----------
Field: growth. Provide a value for each of the compounds that follow.
System: OVCAR-5 ovarian
Assay: NCI-60 one-dose screen, 48 h (100 = growth as untreated, 0 = no growth, -100 = all killed)
Settings: 10 µM unless noted
This is part of a sample that, as a whole, favours compounds with a hit. Of some 83,000 tested, about 20% had one in any assay.
Provide the reading as a plain figure in %.

Would you mind telling me what growth value was observed for O=C(CSc1nc2sc3c(c2c(=O)n1-c1ccc(Cl)cc1)CCCC3)NNC(=O)c1ccc(Br)cc1 ?
58.8

Would you mind telling me what growth value was observed for N#Cc1c(NC(=O)N2CCOCC2)n(-c2ccc(OC(F)(F)F)cc2)c2cc(F)ccc12 ?
88.2

Would you mind telling me what growth value was observed for CS(=O)(=O)Nc1cccc(-n2cnc3cc(-c4ccc(O)cc4)ccc32)c1 ?
56

Would you mind telling me what growth value was observed for COC(=O)c1cccc(Oc2ccc(NC(=O)Nc3cc(C(F)(F)F)ccc3F)cc2)c1 ?
87.1

Would you mind telling me what growth value was observed for COc1cc(CNC(=O)C[C@H](C)CCC=C(C)C)ccc1OCc1cn(-c2ccc(Cl)cc2Cl)nn1 ?
91.7

Would you mind telling me what growth value was observed for O=C(N/N=C/c1c[nH]c2ccccc12)Nc1ccc(F)c(Cl)c1 ?
60.1

Would you mind telling me what growth value was observed for O=C(CSc1nc2ccccc2c(=O)[nH]1)Nc1ccccc1C(=O)O ?
105

Would you mind telling me what growth value was observed for CCC(=O)c1c2c(c3ccc4c5ccccc5ccc4n13)C(=O)c1ccccc1C2=O ?
122

Would you mind telling me what growth value was observed for O=C(CSc1nnc(-c2ccc(-c3nc4ccc(Cl)cc4[nH]3)cc2)o1)Nc1ccc(Br)cc1 ?
47.5

Would you mind telling me what growth value was observed for Cn1cc(-c2cc3nc(-c4c[nH]c5ccccc45)cc(N)n3n2)c2ccccc21 ?
-39.4
